Overview of recorded pIC50 for various compounds
experiment: Inhibition of Staphylococcus aureus TMK assessed as decrease in ATP production using dTDP and ADP as substrate after 3.5 hrs by luciferin/luciferase based luminescence analysis
Hey, just a heads up that pIC50 is the negative log base 10 of the concentration in molar.

Request: Return the recorded pIC50 value; entry: Cc1cn([C@H]2CCCN([C@@H](CC(C)C)c3ccc(C(=O)O)c(Oc4cccc(Cl)c4)c3F)C2)c(=O)[nH]c1=O
Response: 9.00

Request: Return the recorded pIC50 value; entry: CC[C@H](c1ccc(C(=O)O)c(Oc2cccc(Cl)c2)c1OC)N1CCC[C@H](n2cc(C)c(=O)[nH]c2=O)C1
Response: 7.16

Request: Return the recorded pIC50 value; entry: CC[C@@H](c1ccc(C(=O)O)c(Oc2cccc(Cl)c2)c1OC)N1CCC[C@H](n2cc(C)c(=O)[nH]c2=O)C1
Response: 8.52

Others:
Request: Return the recorded pIC50 value; entry: CCC[C@@H](c1ccc(C(=O)O)c(Oc2cccc(Cl)c2)c1)N1CCC[C@H](n2cc(C)c(=O)[nH]c2=O)C1
Response: 7.74

Request: Return the recorded pIC50 value; entry: CC[C@@H](c1ccc(C(=O)O)c(Oc2cccc(Cl)c2)c1)N1CCC[C@H](n2cc(C)c(=O)[nH]c2=O)C1
Response: 7.74

Request: Return the recorded pIC50 value; entry: CCC[C@@H](c1ccc(C(=O)O)c(Oc2cccc(Cl)c2)c1F)N1CCC[C@H](n2cc(C)c(=O)[nH]c2=O)C1
Response: 8.52
